Data origin: ChEMBL document CHEMBL1201862

Entries annotated with measured AC50
- system-under-test: Voltage-gated inwardly rectifying potassium channel KCNH2 (Homo sapiens, UniProt Q12809);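 also: confirmatory quantitative high-throughput screen measuring inhibition of hERG channel activity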
- Sequence (Q12809 whole entry): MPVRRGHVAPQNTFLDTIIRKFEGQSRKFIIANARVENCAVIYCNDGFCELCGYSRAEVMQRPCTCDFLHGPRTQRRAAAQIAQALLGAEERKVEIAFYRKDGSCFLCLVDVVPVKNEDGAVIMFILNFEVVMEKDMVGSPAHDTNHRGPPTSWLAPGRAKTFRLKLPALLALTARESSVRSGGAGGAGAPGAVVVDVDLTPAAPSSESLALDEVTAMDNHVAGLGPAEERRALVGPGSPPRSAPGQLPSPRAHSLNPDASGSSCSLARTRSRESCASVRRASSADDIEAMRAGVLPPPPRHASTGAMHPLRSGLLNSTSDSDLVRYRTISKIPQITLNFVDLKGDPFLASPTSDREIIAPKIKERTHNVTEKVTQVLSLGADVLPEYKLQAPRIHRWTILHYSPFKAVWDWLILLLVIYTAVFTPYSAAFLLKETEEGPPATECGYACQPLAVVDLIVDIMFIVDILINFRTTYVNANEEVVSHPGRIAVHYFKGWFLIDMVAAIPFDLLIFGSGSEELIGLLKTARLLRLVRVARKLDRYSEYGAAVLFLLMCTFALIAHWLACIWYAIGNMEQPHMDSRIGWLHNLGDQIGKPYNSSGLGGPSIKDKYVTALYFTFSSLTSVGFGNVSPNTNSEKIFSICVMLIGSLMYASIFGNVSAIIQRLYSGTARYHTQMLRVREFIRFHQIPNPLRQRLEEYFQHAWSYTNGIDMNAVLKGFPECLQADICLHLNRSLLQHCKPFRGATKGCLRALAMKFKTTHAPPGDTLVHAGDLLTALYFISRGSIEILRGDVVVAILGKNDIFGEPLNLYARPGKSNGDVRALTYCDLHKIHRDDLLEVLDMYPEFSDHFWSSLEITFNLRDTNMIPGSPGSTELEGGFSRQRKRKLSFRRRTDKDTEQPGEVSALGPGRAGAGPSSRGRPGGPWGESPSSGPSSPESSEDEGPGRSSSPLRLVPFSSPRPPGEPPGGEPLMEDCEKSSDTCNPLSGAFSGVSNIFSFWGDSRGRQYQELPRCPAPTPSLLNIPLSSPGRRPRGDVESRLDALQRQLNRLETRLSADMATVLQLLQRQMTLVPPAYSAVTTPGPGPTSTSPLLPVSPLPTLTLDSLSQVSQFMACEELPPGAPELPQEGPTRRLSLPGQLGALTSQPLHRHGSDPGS
- details: Potency
Where a name gives a salt, the structure may show the parent alone.

{"compound": "NCCNS(=O)(=O)c1cccc2c(Cl)cccc12", "AC50": "22.4 µM (inconclusive)"}
{"compound": "CCN(CC)CCNC(=O)c1cc(S(C)(=O)=O)ccc1OC [TIAPRIDE HYDROCHLORIDE]", "AC50": "35.5 µM (inconclusive)"}
{"compound": "CN(C)CCCCSC(=N)N", "AC50": "35.5 µM (inconclusive)"}

Now for a further compound.
Entry Cc1ccc2c(c1N)C(=O)c1ccccc1C2=O has what AC50? 35.5 µM (inconclusive)
